Sourced from PubChem BioAssay

target: Homeobox protein Hox-A13 (Mus musculus); assay: inhibitors of HoxA13-DNA binding, primary screen, biochemical, fluorescence polarization, labeled oligonucleotide (AID 1185); conditions: 15 min, higher = more signal, called active from +8 up or from −8 down
Provide the reported z-score of each item.
One number for each entry.

{"columns": ["molecule", "parameterMeasured", "recordedResult"],
 "data": [
  ["COC(=O)[C@@]1(Cc2ccc(F)cc2)[C@H]2c3cc(C(=O)N4CCCC4)n(Cc4cccc5ccccc45)c3C[C@H]2CN1C(=O)c1ccccc1", "z-score", -4.87],
  ["C=CCC(OC(C)=O)[C@@H]1[C@@H](N(Cc2ccc(-c3ccccc3)cc2)C(=O)Cc2ccc(OC)cc2)c2cc(OCCCO)ccc2N1C(=O)c1ccc2ccccc2n1 (stereo partly drawn)", "z-score", -1.25],
  ["COc1ccc(CCNC(=O)[C@@]2(Sc3ccc(C)cc3)CC(=O)N(Cc3ccccc3Cl)[C@@H]2c2ccc(CO)cc2I)cc1", "z-score", -2.24],
  ["CN(C)CCCNC(=O)[C@@]1(Cc2ccccc2I)c2ccccc2C(=O)N(Cc2ccccc2C(F)(F)F)[C@H]1c1ccc(CO)cc1", "z-score", -2.47],
  ["COc1ccc([Si](C)(C)[C@@H]2[C@@H](CCn3cc([C@H](O)c4ccccc4)nn3)O[C@]3(C(=O)N(Cc4cccc(N5CCOC5=O)c4)c4ccccc43)[C@H]2C)cc1", "z-score", -2.64],
  ["CCOC(=O)C[C@H]1[C@H](OC(=O)Cc2ccc3c(c2)OCO3)[C@@H](NC(=O)C2CCCCC2)c2cc(OCCCO)ccc2N1C(=O)Cc1ccc(OC)cc1", "z-score", -2],
  ["COc1c(C)cc(-c2cc3c(c(-c4ccc(Oc5ccccc5)cc4)n2)[Si](C(C)C)(C(C)C)OC3)cc1C", "z-score", -0.746],
  ["Cc1ccc(S[C@]2(C(=O)NCc3ccccc3)CC(=O)N(Cc3ccccc3Cl)[C@@H]2c2ccc(CO)cc2I)cc1", "z-score", -1.91]
]}

Look up z-score for the entries below, preserving their order.
1. C=C[C@H](C)[C@@H](O)c1ccc(O)c2ccccc12
2. CN1CCC(CCCO)=CC1c1ccc(CN2CCCC2)cc1 (stereo not drawn)
3. [N-]=[N+]=Nc1ccccc1[C@@H]1OC(c2ccc(OCCCO)cc2)=N[C@]1(CCS(=O)(=O)c1ccccc1)C(=O)N1CCOCC1
4. Cc1ccc(S[C@]2(C(=O)NCC(C)C)CC(=O)N(Cc3ccccc3Cl)[C@@H]2c2ccc(CO)cc2)cc1

Return:
1: -2.67; 2: -2.07; 3: -1.96; 4: -2.53

Hey, can you go through the list below and give me z-score for every item?
1. COC(=O)[C@@]1(Cc2ccccc2)[C@H]2c3cc(C(=O)N4CCCC4)n(C)c3C[C@H]2CN1C(=O)c1ccccc1
2. Cc1ccc(S[C@]2(C(=O)O)CC(=O)N(C3Cc4ccccc4C3)[C@@H]2c2ccc(CO)cc2I)cc1
3. CCCN1C(=O)[C@]2(COC(c3ccc(OCCCO)cc3)=N2)Cc2ccccc21
4. NCCCCCNC(=O)[C@H]1C[C@H]2C(=O)NCC(=O)N2[C@H]1c1cccc(OCCO)c1
5. COCCOC(=O)N1C(=O)[C@@]2(c3cc(C#CCCO)ccc31)[C@H](c1ccccc1OCCO)N1[C@H](c3ccccc3)[C@H](c3ccccc3)OC(=O)[C@H]1[C@@H]2C(=O)N1CCN(c2ncccn2)CC1

Return:
1: -5.7; 2: -2.79; 3: -6.01; 4: -1.68; 5: -1.16

Enquiry: // fetch z-score given entry O=c1oc(-c2ccccc2)nc2cc(Br)ccc12
Return: 4.46
